The measured values listed here are drawn from ChEMBL document CHEMBL1201862.

Tested on: Streptococcus sp. 'group A'
Assay: growth inhibition of control SK(-) GAS strain, dose response, counter-screen for streptokinase expression inhibitor project, luminescence, kanamycin, BacTiterGlo, confirmation (AID 1900)
Format: functional, organism-based
Calls of active or inactive are those of the source.
Measured EC50 of individual entries

// lookup EC50 | system=Streptococcus sp. 'group A' | key= Cc1ccc2nc(-c3ccc(NC(=O)CNC4CC4)cc3)sc2c1
14400 nM (active)

* * *

Molecular target: Heat shock factor protein 1 (Mus musculus, UniProt P38532)
Sequence (P38532 whole entry): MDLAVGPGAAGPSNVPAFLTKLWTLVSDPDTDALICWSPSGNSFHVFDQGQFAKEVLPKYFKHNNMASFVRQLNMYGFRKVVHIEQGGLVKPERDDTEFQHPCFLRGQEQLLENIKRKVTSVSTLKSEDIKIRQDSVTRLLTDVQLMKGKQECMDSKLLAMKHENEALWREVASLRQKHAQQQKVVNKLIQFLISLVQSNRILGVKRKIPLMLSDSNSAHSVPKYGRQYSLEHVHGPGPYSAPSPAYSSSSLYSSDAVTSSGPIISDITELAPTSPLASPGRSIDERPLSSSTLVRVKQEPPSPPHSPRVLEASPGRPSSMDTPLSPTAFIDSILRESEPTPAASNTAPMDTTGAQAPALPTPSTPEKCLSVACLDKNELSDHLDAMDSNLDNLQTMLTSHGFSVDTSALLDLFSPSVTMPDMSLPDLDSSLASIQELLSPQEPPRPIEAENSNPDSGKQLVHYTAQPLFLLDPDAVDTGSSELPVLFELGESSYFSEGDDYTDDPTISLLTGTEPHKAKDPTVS
Experiment: HSF1 potentiators in luciferase reporter cells, confirmation, cell-based, NIH3T3, luminescence, dose retest (AID 435004);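 note: stress induced by proteasome inhibitor MG132 added 30 min after compound; luciferase reporter driven by HSF1 response element in NIH3T3 cells; actives raise luminescence as potentiators of the MG132 stress response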
Assay type: functional
Calls of active or inactive are those of the source.
Measured EC50 of individual entries

# example entries with known answers
molecule	EC50
N#C/C(C[n+]1cn(NC(=O)Nc2ccccc2)cn1)=N/O	> 260 µM (inactive)
CSc1ccccc1-n1nnnc1SCC(=O)NCc1cccs1	> 260 µM (inactive)
CCCCCCOc1ccc(/C(C)=N/NC2=NCCN2)cc1[N+](=O)[O-]	> 260 µM (inactive)

Would you mind telling me what EC50 value was observed for Cc1cc(C)cc(Oc2ccccc2/C=C\C(=O)O)c1 ?
> 260 µM (inactive)

Would you mind telling me what EC50 value was observed for COC(=O)c1sc(N)c(C(=O)OC)c1CSc1nc2sc3c(c2c(=O)n1C)CCC3 ?
> 260 µM (inactive)

Would you mind telling me what EC50 value was observed for CCOC(=O)c1c(C)sc2c1N(C(=O)CN(CC)CC)c1ccccc1S2 ?
> 260 µM (inactive)

Would you mind telling me what EC50 value was observed for Cn1c(Cn2nnc3ccccc32)nnc1SCC(=O)c1ccccc1F ?
> 260 µM (inactive)

Would you mind telling me what EC50 value was observed for CC1=CC(=O)C=C(C)C1=NOC(=O)/C=C\c1ccccc1 ?
> 260 µM (inactive)

* * *

Measured EC50 of individual entries
Target: Short transient receptor potential channel 4 (Mus musculus, UniProt Q9QUQ5)
Sequence (Q9QUQ5 whole entry): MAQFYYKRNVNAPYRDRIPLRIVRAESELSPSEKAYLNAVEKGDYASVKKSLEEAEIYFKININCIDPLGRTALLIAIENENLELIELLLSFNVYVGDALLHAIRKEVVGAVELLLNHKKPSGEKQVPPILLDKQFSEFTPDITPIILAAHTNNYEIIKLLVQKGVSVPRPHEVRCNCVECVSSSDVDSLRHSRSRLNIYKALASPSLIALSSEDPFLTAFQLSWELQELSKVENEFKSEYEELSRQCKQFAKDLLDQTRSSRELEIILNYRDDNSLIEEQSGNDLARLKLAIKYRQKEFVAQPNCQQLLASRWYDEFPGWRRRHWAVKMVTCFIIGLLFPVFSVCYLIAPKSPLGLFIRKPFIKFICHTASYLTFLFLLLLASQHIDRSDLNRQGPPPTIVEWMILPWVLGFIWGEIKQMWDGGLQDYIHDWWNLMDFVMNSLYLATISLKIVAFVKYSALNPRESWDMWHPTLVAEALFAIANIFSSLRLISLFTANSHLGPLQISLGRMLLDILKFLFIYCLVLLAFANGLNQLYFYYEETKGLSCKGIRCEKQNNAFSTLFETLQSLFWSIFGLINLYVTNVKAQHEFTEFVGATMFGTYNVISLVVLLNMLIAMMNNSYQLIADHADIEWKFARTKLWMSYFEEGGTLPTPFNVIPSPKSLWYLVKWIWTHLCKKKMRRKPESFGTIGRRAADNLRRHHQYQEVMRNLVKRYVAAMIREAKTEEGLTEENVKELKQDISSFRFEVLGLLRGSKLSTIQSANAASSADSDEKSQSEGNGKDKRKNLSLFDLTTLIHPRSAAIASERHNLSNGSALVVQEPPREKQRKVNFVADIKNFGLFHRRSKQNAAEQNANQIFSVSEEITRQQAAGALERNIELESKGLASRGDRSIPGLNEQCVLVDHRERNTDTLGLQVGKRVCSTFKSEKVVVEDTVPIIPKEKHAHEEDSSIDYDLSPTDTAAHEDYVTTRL
Assay: mouse TRPC4 channel activators, dose response, cell-based, HEK293 TRPC4/mu-opioid, Fluo-4 calcium (AID 434937)
Type: functional
Active and inactive are the calls of the source.

compound	target_or_system	EC50
COc1ccc(C(CNC(=O)c2cccc(NS(=O)(=O)c3ccc(C)c(F)c3)c2)N(C)C)cc1 (stereo unspecified)	Short transient receptor potential channel 4 (Mus musculus, UniProt Q9QUQ5)	5310 nM (active)

// lookup EC50 | system=Short transient receptor potential channel 4 (Mus musculus, UniProt Q9QUQ5) | key= CC(=O)Nc1ccc(C2(c3ccc(NC(C)=O)cc3)C(=O)Nc3ccccc32)cc1
1500 nM (active)

// lookup EC50 | system=Short transient receptor potential channel 4 (Mus musculus, UniProt Q9QUQ5) | key= CN(C)C(CNC(C(=O)Nc1ccc(F)cc1)c1ccccc1)c1ccccc1 (stereo unspecified)
596 nM (active)

// lookup EC50 | system=Short transient receptor potential channel 4 (Mus musculus, UniProt Q9QUQ5) | key= COc1ccc(C(CNc2nc(-c3cccnc3)nc3ccccc23)N(C)C)cc1 (stereo unspecified)
473 nM (active)

// lookup EC50 | system=Short transient receptor potential channel 4 (Mus musculus, UniProt Q9QUQ5) | key= CSc1ccc(C(=O)NCC(c2ccco2)N(C)C)cc1[N+](=O)[O-] (stereo unspecified)
33.3 nM (active)

// lookup EC50 | system=Short transient receptor potential channel 4 (Mus musculus, UniProt Q9QUQ5) | key= Cc1onc(-c2ccccc2)c1C(=O)NNC(=S)NC(=O)c1ccc2c(c1)OCO2
4220 nM (active)

* * *

Measured AC50 of individual entries
Molecular target: UniProtKB Q06710
Sequence (Q06710 whole entry): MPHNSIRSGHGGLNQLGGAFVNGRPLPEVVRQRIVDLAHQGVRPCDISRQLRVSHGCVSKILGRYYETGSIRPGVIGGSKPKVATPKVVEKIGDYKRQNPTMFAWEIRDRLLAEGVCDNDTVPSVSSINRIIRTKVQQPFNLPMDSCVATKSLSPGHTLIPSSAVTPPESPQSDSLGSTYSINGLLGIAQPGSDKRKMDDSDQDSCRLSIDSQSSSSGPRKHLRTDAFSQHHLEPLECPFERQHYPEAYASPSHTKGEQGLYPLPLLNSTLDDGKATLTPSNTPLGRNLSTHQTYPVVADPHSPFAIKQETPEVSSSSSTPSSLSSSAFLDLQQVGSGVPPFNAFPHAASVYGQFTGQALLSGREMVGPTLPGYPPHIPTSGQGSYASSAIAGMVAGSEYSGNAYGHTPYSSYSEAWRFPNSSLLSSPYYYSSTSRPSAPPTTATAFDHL
Assay: inhibitors of PAX8-driven TPO luciferase reporter, dose response, RMG-I cells, cherry-pick (AID 687027);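 note: luciferase reporter driven by Pax8 target thyroperoxidase promoter measured by SteadyGlo luminescence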
Format: functional, cell-based
Calls of active or inactive are those of the source. *1 amine or outer side, *2 acyl side, *3 side chain or, on linkers, in order; H or OH if unused. Where a SMILES comes first, the peptide text is derived from it. Bridges are numbered along the chain shown (N, C = ends). [ ]: non-standard residue; d: D form. ξ: configuration not given here. X1 = CC[C@H](CCC[C@@H](O)[C@@H](C)C(=O)O[C@H](C)[C@@H](C)C/C=C(C)/C(=C\C(=O)[*:1])OC)O[*:2]; NMeξIle = CC[C@H](C)C(NC)C(=O)O; NMeV = CN[C@H](C(=O)O)C(C)C; NMeS = CN[C@@H](CO)C(=O)O

compound	AC50
C[C@H](CO)N1C[C@H](C)[C@@H](CN(C)Cc2ccc(Cl)c(Cl)c2)OCCCC[C@H](C)Oc2ccc(NS(=O)(=O)c3ccc(F)cc3)cc2C1=O	15.6 µM (active)
C[C@@H]1CN([C@@H](C)CO)C(=O)c2cc(N(C)C)ccc2O[C@@H]1CN(C)Cc1ccc(Oc2ccccc2)cc1	19.1 µM (active)
C[C@H](CO)N1C[C@H](C)[C@H](CN(C)C(=O)NC2CCCCC2)Oc2cc(C#Cc3ccc(F)cc3)ccc2S1(=O)=O	7.83 µM (active)
Cc1ccc(S(=O)(=O)Nc2ccc3c(c2)C(=O)N([C@H](C)CO)C[C@@H](C)[C@H](CN(C)C(=O)Nc2cccc4ccccc24)OCCCC[C@@H](C)O3)cc1	5.78 µM (active)

// lookup AC50 | system=UniProtKB Q06710 | key= CC[C@@H]1CCC[C@@H](O)[C@@H](C)C(=O)O[C@H](C)[C@@H](C)C/C=C(C)/C(OC)=C\C(=O)N(C)C([C@@H](C)CC)C(=O)N(C)[C@@H](C(C)C)C(=O)N(C)[C@@H](COC)C(=O)N2CCC[C@H]2C(=O)N(C)[C@@H](C(C)C)C(=O)N2CCC[C@H]2C(=O)O1 (stereo not given in full) ([NMeξIle][NMeV][NMeS](Me)P[NMeV]P; linker N-C via X1)
< 0.26 µM (active)

* * *

System: Vero
Test: cells
Type: functional
Conditions: Chlorocebus sabaeus
Calls of active or inactive are those of the source.
readout_kind: CC50

# example entries with known answers
molecule	target_or_system	CC50
Cc1cccn2c(=O)c3cc(C(=O)NC4CCCC4)c(=N)n(Cc4ccc(F)cc4)c3nc12	Vero	> 25 µM (active)
COc1cc(OCc2ccccc2)c(C(=O)/C=C/c2ccc3c(c2)OCO3)c(OC)c1OC	Vero	> 25 µM (active)

// lookup CC50 | system=Vero | key= Cc1ccc(NS(=O)(=O)c2ccc(C(=O)NCC(c3ccco3)N3CCCCC3)cc2)cc1 (configuration not stated)
> 25 µM (active)

// lookup CC50 | system=Vero | key= N#Cc1sc2nc(N3CCCCC3)c3c(c2c1N)CCCC3
> 25 µM (active)

// lookup CC50 | system=Vero | key= C[C@]12CC[C@H]3[C@@H](CC[C@]4(O)C[C@@H](O)CC[C@]34C=O)[C@@]1(O)CC[C@@H]2C1=CC(=O)OC1
1.22 µM (active)

// lookup CC50 | system=Vero | key= CN(C)CCCN(C(=O)c1ccco1)c1nc2ccc(Cl)cc2s1
> 25 µM (active)

// lookup CC50 | system=Vero | key= O=C(Oc1c(Cl)cc(Cl)c2cccnc12)c1cccs1
16.5 µM (active)
